Values compiled from paper PMC9482650.

Target: MAST1, Q9Y2H9
Sequence (Q9Y2H9 962-1065): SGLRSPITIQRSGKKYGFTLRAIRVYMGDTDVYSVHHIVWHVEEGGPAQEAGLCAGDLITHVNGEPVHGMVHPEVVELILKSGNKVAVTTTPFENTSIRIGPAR
Experiment: holdup assay
Parameters: key: below the threshold = too weak to quantify, mostly under pKd 3.1 to 4
Conditions: plain residues with an end cap or a label only (N-terminal biotin on a linker: ado-ado)
Endpoint: pKd

Please fill in: pKd reported for KSRPENGTVC [TMEM178B, H3BS89] = below the threshold

response.value for SQPLLVHDDV [KIT, P10721] (field: pKd) = below the threshold

Entry under test: SGDGKTSVWI [GJC1, P36383] . Its pKd was below the threshold
